I'd be grateful if you could share measured Ki for these entries.
target: hepsin (Homo sapiens, UniProt P05981)
Sequence (P05981 45-162 limits assumed): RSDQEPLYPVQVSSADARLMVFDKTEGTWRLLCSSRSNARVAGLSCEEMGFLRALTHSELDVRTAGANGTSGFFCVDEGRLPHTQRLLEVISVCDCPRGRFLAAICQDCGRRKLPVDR
Sequence (P05981 163-417 limits assumed): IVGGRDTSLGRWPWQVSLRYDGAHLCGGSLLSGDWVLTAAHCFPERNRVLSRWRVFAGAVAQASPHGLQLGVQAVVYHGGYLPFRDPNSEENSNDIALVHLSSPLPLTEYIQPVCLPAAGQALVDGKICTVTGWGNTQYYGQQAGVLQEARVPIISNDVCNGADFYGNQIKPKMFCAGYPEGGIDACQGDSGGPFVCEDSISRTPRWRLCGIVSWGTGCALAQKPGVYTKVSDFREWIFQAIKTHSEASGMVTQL
Answers are plain numbers, in nM.

N=C(N)NCCC[C@H](NC(=O)[C@H](CC(N)=O)NC(=O)OCC1c2ccccc2-c2ccccc21)C(=O)c1nc2ccccc2s1 :: 1.7

# ---- query compound ----
Q) For the compound shown here, N=C(N)NCCC[C@H](NC(=O)CNC(=O)OCC1c2ccccc2-c2ccccc21)C(=O)c1nc2ccccc2s1 , give the reported Ki.
A) 831

###

target: matriptase (Homo sapiens)
Construct: recombinant catalytic domain (#3946-SEB, R&D Systems)
Sequence (Q9Y5Y6 615-855 limits assumed): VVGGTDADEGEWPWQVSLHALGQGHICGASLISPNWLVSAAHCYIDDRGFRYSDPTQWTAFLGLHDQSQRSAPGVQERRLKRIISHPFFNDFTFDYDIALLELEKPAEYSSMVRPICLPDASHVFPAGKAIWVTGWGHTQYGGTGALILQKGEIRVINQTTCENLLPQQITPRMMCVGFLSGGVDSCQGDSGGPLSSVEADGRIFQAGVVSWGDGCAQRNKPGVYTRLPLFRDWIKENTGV
testSummary: fluorescent kinetic enzyme inhibition assay
endpointLabel: pKi
Answers are plain numbers, as −log10 of the molar value.

N=C(N)NCCC[C@H](NC(=O)CNC(=O)OCC1c2ccccc2-c2ccccc21)C(=O)c1nc2ccccc2s1 [ZFH7185-8] :: 9.89

Q) For the compound shown here, N=C(N)NCCC[C@H](NC(=O)[C@H](CC(N)=O)NC(=O)OCC1c2ccccc2-c2ccccc21)C(=O)c1nc2ccccc2s1 [ZFH7185-3] , give the reported pKi.
A) 6.97
